Biological target: UniProt:O75469
Sequence (O75469 1-434): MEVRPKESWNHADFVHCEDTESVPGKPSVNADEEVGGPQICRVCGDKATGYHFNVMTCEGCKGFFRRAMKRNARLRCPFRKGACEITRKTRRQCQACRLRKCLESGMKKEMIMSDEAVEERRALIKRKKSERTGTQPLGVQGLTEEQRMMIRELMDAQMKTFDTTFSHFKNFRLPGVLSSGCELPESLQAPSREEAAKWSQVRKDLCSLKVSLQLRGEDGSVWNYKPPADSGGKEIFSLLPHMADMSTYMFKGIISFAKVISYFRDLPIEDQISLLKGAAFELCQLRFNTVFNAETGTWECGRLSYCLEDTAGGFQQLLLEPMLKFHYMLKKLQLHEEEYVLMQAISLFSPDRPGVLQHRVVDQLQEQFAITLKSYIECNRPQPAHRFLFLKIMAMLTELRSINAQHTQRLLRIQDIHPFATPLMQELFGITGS
Test: PXR activation, HepG2 reporter assay
Assay type: cell-based
Set-up: host or cells: HepG2
Settings: HepG2 reporter assay; read-out: EC50, PXR activation
PROPERTY_MEASURED: EC50 (µM)

# COMPOUND, PROPERTY_MEASURED, NUMERIC_RESULT
data = [
    ("Cc1[nH]c2ccccc2c1C(c1c(C)[nH]c2ccccc12)c1c(C)[nH]c2ccccc12 [FKK999, reference compound]", "EC50", 5),
]
